target: Recombinant GST-Tie2 (Homo sapiens); test: Tie2 Fluorescence Polarization Kinase Activity Assay (TIE2-FP); type: biochemical
Sequence (Q02763 23-1124): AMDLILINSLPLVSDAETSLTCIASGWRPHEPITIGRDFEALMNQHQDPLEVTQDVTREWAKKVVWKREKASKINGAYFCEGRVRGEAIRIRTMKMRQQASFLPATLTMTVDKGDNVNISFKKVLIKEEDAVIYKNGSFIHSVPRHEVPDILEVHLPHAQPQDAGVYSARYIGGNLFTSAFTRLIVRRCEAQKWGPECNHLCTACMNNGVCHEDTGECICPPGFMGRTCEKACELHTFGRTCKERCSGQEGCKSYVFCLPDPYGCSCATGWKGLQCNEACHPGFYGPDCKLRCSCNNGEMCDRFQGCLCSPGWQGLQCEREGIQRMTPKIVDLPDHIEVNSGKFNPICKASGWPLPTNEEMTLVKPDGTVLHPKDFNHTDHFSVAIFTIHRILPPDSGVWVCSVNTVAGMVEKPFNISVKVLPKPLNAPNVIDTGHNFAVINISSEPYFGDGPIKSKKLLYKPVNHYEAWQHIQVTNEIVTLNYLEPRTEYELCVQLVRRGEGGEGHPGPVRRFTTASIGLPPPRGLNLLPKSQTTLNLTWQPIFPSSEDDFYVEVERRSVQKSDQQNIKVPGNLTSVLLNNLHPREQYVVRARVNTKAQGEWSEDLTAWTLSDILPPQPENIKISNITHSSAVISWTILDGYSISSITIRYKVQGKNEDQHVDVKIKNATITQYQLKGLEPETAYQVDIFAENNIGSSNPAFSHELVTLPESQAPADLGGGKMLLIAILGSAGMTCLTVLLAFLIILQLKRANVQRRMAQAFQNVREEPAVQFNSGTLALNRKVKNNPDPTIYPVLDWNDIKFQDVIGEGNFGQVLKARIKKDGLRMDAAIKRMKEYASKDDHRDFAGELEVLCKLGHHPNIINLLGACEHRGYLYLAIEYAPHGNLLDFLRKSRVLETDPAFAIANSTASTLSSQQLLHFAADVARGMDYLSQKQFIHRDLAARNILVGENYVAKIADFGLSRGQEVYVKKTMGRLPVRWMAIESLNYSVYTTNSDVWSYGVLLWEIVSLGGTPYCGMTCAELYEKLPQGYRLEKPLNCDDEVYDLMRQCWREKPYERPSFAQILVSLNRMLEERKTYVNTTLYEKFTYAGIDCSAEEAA
# Lookup of reported inhibition at 10 µM keyed by entry
Give the number first and the unit second.

Study these solved cases before continuing.
Cn1nc(-c2ccc(NS(=O)(=O)c3ccc(Cl)s3)cc2)c2cnc(NCCN3CCOCC3)nc21 [Example 150]	41%
Cc1cc(-c2nn(C)c3nc(NCCN4CCOCC4)ncc23)ccc1NS(=O)(=O)c1cc(Cl)sc1Cl [Example 155]	23%
Cn1nc(-c2ccc(NS(=O)(=O)c3cccc(C(F)(F)F)c3)cc2)c2cnc(NCCN3CCOCC3)nc21 [Example 156]	23%

// returns reported inhibition at 10 µM for input Cn1nc(-c2ccc(NS(=O)(=O)c3cc(Cl)sc3Cl)cc2)c2cnc(NCCN3CCOCC3)nc21 [Example 149]
38%

Here is the next compound: Cn1nc(-c2ccc(NS(=O)(=O)c3ccccc3F)cc2)c2cnc(NCCN3CCOCC3)nc21 [Example 148]
36%
